Hey, just so you know, these numbers are from patent US5677459A.

Measured change in vivo at 20 mg/kg by item
System: rats
Experiment: Locomotor activity assay
Type: in vivo, rat (male Sprague-Dawley)
Settings: Rattus norvegicus, sc, 1 h; 0-60 min, 20 mg/kg, s.c.; read-out: General Activity (beam breaks), percent of change from control
Where a name gives a salt, the structure may show the parent alone.
Entry rule: numbers only, all in %.

Record C#Cc1cncc(C2CCCN2C)c1.O=C(O)/C=C/C(=O)O (racemic) [R^5 = ethynyl (racemic), fumarate] : what is its change in vivo at 20 mg/kg with rats?
509

Record CN1CCCC1c1cncc(-c2ccc(O)cc2)c1.O=C(O)/C=C/C(=O)O (stereo not shown) [R^5 = 4-hydroxyphenyl, fumarate] : what is its change in vivo at 20 mg/kg with rats?
96

Record CN1CCCC1c1cncc(-c2cccc(Cl)c2)c1.O=C(O)/C=C/C(=O)O (stereo not shown) [R^5 = 3-chlorophenyl, fumarate] : what is its change in vivo at 20 mg/kg with rats?
70

Record CN1CCCC1c1cncc(-c2ccc(F)cc2)c1.O=C(O)/C=C/C(=O)O (stereo not shown) [A = CH2; R^7 = CH3; R^5 = 4-fluorophenyl, fumarate] : what is its change in vivo at 20 mg/kg with rats?
95

Record COc1ccc(-c2cncc(C3CCCN3C)c2)cc1.O=C(O)/C=C/C(=O)O (stereo not shown) [R^5 = 4-methyoxyphenyl, fumarate] : what is its change in vivo at 20 mg/kg with rats?
83

Further cases:
Record CN1CCCC1c1cncc(-c2ccc(-c3ccccc3)cc2)c1 (stereo not shown) : what is its change in vivo at 20 mg/kg with rats?
-17

Record CN1CCCC1c1cncc(-c2ccc(O)c(Cl)c2)c1.O=C(O)/C=C/C(=O)O (stereo not shown) [R^5 = 3-chloro-4-hydroxyphenyl, fumarate] : what is its change in vivo at 20 mg/kg with rats?
68

Record CN1CCCC1c1cncc(-c2ccc(O)c(F)c2)c1.O=C(O)/C=C/C(=O)O (stereo not shown) [R^5 = 3-fluoro-4-hydroxyphenyl, fumarate] : what is its change in vivo at 20 mg/kg with rats?
63

Record CN1CCCC1c1cncc(C#Cc2ccccc2)c1 (stereo not shown) [R^5 = phenylethynyl, fumarate] : what is its change in vivo at 20 mg/kg with rats?
3

Record COc1ccc(-c2cncc(C3CCCN3C)c2)cc1F.O=C(O)/C=C/C(=O)O (stereo not shown) [R^5 = 3-fluoro-4-methoxyphenyl, fumarate] : what is its change in vivo at 20 mg/kg with rats?
78

----------
System: ^3 H-Dopamine release, rat striatal slices
Experiment: Ligand-stimulated ^3 H-dopamine release from rat striatal slices
Type: cell-based
Settings: in vitro slices, 300 μM
Decision: percent fractional release, ^3 H-Dopamine, Striatum >= 3% yields Condition met, all other cases yield Condition not met.

Before answering, review these 5 worked examples.
Decide: is the reported value of percent fractional release, ^3 H-Dopamine, Striatum for Cc1ccc(-c2cncc(C3CCCN3C)c2)cc1.O=C(O)/C=C/C(=O)O (stereo not shown) equal to or greater than 3%?
Condition not met

Decide: is the reported value of percent fractional release, ^3 H-Dopamine, Striatum for CN1CCCC1c1cncc(-c2ccc(F)cc2)c1.O=C(O)/C=C/C(=O)O (stereo not shown) equal to or greater than 3%?
Condition not met

Decide: is the reported value of percent fractional release, ^3 H-Dopamine, Striatum for COc1ccc(-c2cncc(C3CCCN3C)c2)cc1.O=C(O)/C=C/C(=O)O (stereo not shown) equal to or greater than 3%?
Condition not met

Decide: is the reported value of percent fractional release, ^3 H-Dopamine, Striatum for CN1CCCC1c1cncc(-c2ccc(O)c(F)c2)c1.O=C(O)/C=C/C(=O)O (stereo not shown) [R^5 = 3-fluoro-4-hydroxyphenyl] equal to or greater than 3%?
Condition met

Decide: is the reported value of percent fractional release, ^3 H-Dopamine, Striatum for COc1ccc(-c2cncc(C3CCCN3C)c2)cc1F.O=C(O)/C=C/C(=O)O (stereo not shown) equal to or greater than 3%?
Condition met

Further cases:
Decide: is the reported value of percent fractional release, ^3 H-Dopamine, Striatum for CN1CCCC1c1cncc(-c2ccc(-c3ccccc3)cc2)c1 (stereo not shown) equal to or greater than 3%?
Condition not met

Decide: is the reported value of percent fractional release, ^3 H-Dopamine, Striatum for CN1CCCC1c1cncc(-c2ccc(O)c(Cl)c2)c1.O=C(O)/C=C/C(=O)O (stereo not shown) [R^5 = 3-chloro-4-hydroxyphenyl] equal to or greater than 3%?
Condition met
